Each record here notes measured pIC50.
- target_under_test: Serine/threonine-protein kinase mTOR (Homo sapiens, UniProt P42345)
- test: Inhibition of recombinant human GST tagged mTOR (1360 to 2549 residues) expressed in baculovirus expression system measured by LanthaScreen assay
Recall that pIC50 is obtained by taking minus log10 of the concentration measured in molar.

Would you please look over these solved cases?
{"structure_smiles": "COc1ncc2cc1NS(=O)(=O)c1cccc(c1)C(=O)NCC1CCN(CC1)c1ncnc3ccc-2cc13", "pIC50": 7.63}
{"structure_smiles": "COc1ncc2cc1NS(=O)(=O)c1cccc(c1)C(=O)NCCn1cc(cn1)-c1ncnc3ccc-2cc13", "pIC50": 7.78}

// moving on: another record for pIC50
Item: COc1ncc2cc1NS(=O)(=O)c1cccc(c1)C(=O)NCC1CCN(CC1)c1ccnc3ccc-2cc13 | pIC50: 8.39

====

- target_under_test: Serine/threonine-protein kinase mTOR (Homo sapiens)
- test: Inhibition of recombinant human GST tagged mTOR (1360 to 2549 residues) expressed in baculovirus expression system measured by LanthaScreen assay
property_name: IC50

Some compounds with known IC50 results, for comparison:
{"structure_smiles": "COc1ncc2cc1NS(=O)(=O)c1cccc(c1)C(=O)NCc1cncc(c1)-c1ncnc3ccc-2cc13", "IC50": "4.9 nM"}
{"structure_smiles": "COc1ncc2cc1NS(=O)(=O)c1cc(c(F)cc1F)C(=O)NCc1cncc(c1)-c1ccnc3ccc-2nc13", "IC50": "5.4 nM"}
{"structure_smiles": "COc1ncc2cc1NS(=O)(=O)c1cccc(c1)C(=O)NCCn1cc(cn1)-c1cnn3ccc-2nc13", "IC50": "66.3 nM"}
{"structure_smiles": "COc1ncc2cc1NS(=O)(=O)c1cccc(c1)C(=O)NCc1cncc(c1)-c1ccnc3ccc-2cc13", "IC50": "0.3 nM"}

Entry under test: COc1ncc2cc1NS(=O)(=O)c1cc(c(F)cc1F)C(=O)NCc1cccc(c1)-c1ccnc3ccc-2cc13 . Its IC50 was 63.8 nM

Reported IC50 ( COc1ncc2cc1NS(=O)(=O)c1cc(c(F)cc1F)C(=O)NCc1cncc(c1)-c1ccnc3ccc-2cc13 ) = 22.3 nM

Reported IC50 of COc1ncc2cc1NS(=O)(=O)c1cccc(c1)C(=O)NCc1cncc(c1)-c1ncnc3sc-2cc13 : 39.9 nM

Noted for COc1ncc2cc1NS(=O)(=O)c1cccc(c1)C(=O)NCc1cccc(c1)-c1ccnc3ccc-2nc13 : its IC50 reads > 10000 nM

====

remaining at 0.25 h, 0.5 µM listing for selected compounds.
- test: Metabolic stability in rat liver microsomes assessed as parent compound remaining in presence of NADPH regenerating system at 0.5 uM measured after 15 mins by LC-MS/MS analysis
- Assay type: ADME, Microsome
- stated_conditions: read-out: Stabilty
State just the number; it will be interpreted in %.

Some compounds with known remaining at 0.25 h, 0.5 µM results, for comparison:
{"structure_smiles": "COc1ncc2cc1NS(=O)(=O)c1cc(c(F)cc1F)C(=O)NCc1cncc(c1)-c1ccnc3ccc-2cc13", "remaining at 0.25 h, 0.5 µM / %": 97}
{"structure_smiles": "COc1ncc2cc1NS(=O)(=O)c1cccc(c1)C(=O)NCc1cccc(c1)-c1ncnc3ccc-2cc13", "remaining at 0.25 h, 0.5 µM / %": 91}
{"structure_smiles": "COc1ncc2cc1NS(=O)(=O)c1cccc(c1)C(=O)NCc1cncc(c1)-c1cnc3ccc-2cn13", "remaining at 0.25 h, 0.5 µM / %": 100}

Moving on to another compound below.
# remaining at 0.25 h, 0.5 µM of COc1ncc2cc1NS(=O)(=O)c1cccc(c1)C(=O)NCc1cncc(c1)-c1ncnc3ccc-2cc13 = 86

====

- target_under_test: Cytochrome P450 1A2 (Homo sapiens, UniProt P05177)
- Sequence (P05177 whole entry): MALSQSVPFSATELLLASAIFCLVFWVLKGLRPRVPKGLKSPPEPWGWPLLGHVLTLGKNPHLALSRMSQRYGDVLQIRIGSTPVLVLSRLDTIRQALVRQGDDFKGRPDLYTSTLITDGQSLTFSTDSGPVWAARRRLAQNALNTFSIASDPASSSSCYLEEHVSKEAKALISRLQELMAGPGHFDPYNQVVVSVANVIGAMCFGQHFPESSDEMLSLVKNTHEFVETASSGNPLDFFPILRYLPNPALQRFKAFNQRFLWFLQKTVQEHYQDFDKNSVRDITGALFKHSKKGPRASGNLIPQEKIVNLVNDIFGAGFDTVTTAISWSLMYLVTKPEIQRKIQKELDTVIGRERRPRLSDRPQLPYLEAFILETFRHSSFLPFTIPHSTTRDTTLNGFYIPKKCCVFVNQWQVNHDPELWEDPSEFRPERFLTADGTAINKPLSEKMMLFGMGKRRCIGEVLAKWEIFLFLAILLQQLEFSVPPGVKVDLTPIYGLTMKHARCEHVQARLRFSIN
property_name: IC50

The reported value for COc1ncc2cc1NS(=O)(=O)c1cccc(c1)C(=O)NCc1cncc(c1)-c1cnc3ccc-2cn13 in terms of IC50 is > 30 µM

====

- test: AUC (infinity) in BALB/c mouse at 5 mg/kg, iv measured for 8 hrs
- Type: ADME, organism-based
- Parameters: route intravenous, dose 5 mg/kg, time 8 hrs
- stated_conditions: in vivo
// reported AUC(0-inf) per item
Write the value in ng·h/mL as a bare number.

Before answering, review these 2 worked examples.
{"structure_smiles": "COc1ncc2cc1NS(=O)(=O)c1cc(c(F)cc1F)C(=O)NCc1cncc(c1)-c1ccnc3ccc-2cc13", "AUC(0-inf) [ng·h/mL]": 9470}
{"structure_smiles": "COc1ncc2cc1NS(=O)(=O)c1cccc(c1)C(=O)NCc1cncc(c1)-c1ncnc3ccc-2cc13", "AUC(0-inf) [ng·h/mL]": 9200}

Recorded AUC(0-inf) (compound COc1ncc2cc1NS(=O)(=O)c1cccc(c1)C(=O)NCc1cncc(c1)-c1cnc3ccc-2cn13 ): 2640

====

The reader will find reported Tmax values listed item by item below.
- test: Tmax in BALB/c mouse at 10 mg/kg, po measured for 8 hrs
- Format: ADME, organism-based
- stated_conditions: in vivo

{"structure_smiles": "COc1ncc2cc1NS(=O)(=O)c1cc(c(F)cc1F)C(=O)NCc1cncc(c1)-c1ccnc3ccc-2cc13", "Tmax": "15 min"}

Per the records, this compound ( COc1ncc2cc1NS(=O)(=O)c1cccc(c1)C(=O)NCc1cncc(c1)-c1ncnc3ccc-2cc13 ) has Tmax equal to 9.6 min

Form field Tmax, entry COc1ncc2cc1NS(=O)(=O)c1cccc(c1)C(=O)NCc1cncc(c1)-c1cnc3ccc-2cn13 : 30 min

====

- test: Inhibition of PI3K/mTOR in human MCF7 cells assessed as reduction of S6 phosphorylation at Ser235/236 residue measured after 3 hrs by western blot assay
- Type: cell-based
- stated_conditions: MCF7, 3 h
Entries and their EC50
API: value field is a number in pM; no unit string.

{"compound": "COc1ncc2cc1NS(=O)(=O)c1cccc(c1)C(=O)NCc1cncc(c1)-c1cnc3ccc-2cn13", "readout_value": 840}

# evaluate next
So for COc1ncc(-c2ccc3nccc(-c4ccnnc4)c3c2)cc1NS(=O)(=O)c1ccc(F)cc1F [OMIPALISIB] , the logged EC50 turned out to be 870

====

- target_under_test: Phosphatidylinositol 4,5-bisphosphate 3-kinase catalytic subunit alpha isoform (Homo sapiens)
- Sequence (P42336 whole entry, the tested form may be a part, canonical isoform): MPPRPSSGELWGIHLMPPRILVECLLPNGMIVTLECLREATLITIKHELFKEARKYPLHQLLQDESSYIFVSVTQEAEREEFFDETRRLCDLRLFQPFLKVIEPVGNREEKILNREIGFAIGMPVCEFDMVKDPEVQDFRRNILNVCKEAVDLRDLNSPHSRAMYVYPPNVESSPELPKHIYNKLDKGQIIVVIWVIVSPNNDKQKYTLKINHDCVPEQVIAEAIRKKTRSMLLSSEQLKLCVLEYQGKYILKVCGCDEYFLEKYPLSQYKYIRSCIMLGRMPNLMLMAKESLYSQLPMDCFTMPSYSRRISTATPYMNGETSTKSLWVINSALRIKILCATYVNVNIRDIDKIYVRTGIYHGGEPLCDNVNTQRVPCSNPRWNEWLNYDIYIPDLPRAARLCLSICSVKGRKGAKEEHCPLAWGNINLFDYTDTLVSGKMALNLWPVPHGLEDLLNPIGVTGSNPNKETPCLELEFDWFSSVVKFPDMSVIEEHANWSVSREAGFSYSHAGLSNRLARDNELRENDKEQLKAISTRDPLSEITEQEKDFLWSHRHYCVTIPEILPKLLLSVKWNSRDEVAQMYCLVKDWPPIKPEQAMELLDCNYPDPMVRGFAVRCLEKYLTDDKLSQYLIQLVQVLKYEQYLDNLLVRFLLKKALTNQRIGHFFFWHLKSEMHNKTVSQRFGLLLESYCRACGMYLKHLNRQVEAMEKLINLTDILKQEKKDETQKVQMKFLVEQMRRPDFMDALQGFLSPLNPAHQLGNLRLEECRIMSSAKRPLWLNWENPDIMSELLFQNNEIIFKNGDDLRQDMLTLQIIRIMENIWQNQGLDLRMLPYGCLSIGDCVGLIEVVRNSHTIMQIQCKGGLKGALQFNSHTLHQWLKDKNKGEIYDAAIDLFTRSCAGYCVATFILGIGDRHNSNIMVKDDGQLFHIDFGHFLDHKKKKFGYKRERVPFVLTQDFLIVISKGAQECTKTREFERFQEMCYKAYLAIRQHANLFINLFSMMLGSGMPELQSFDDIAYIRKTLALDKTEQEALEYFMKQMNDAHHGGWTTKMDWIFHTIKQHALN
- test: Inhibition of human full length p110alpha (1 to 1068 residues) expressed in baculovirus-infected Sf21 cells by ADP-Hunter Plus assay
property_name: pIC50
Scale note: pIC50 = -log10(concentration in M).

As a guide, the following entries are already answered.
{"structure_smiles": "COc1ncc2cc1NS(=O)(=O)c1cccc(c1)C(=O)NCc1cncc(c1)-c1cnc3ccc-2nn13", "property_name": "pIC50", "readout_value": 8.52}
{"structure_smiles": "COc1ncc2cc1NS(=O)(=O)c1cccc(c1)C(=O)NCc1cncc(c1)Cc1cnc3sc-2nn13", "property_name": "pIC50", "readout_value": 8.05}
{"structure_smiles": "COc1ncc2cc1NS(=O)(=O)c1cccc(c1)C(=O)NCc1cncc(c1)-c1cnc3ccc-2cn13", "property_name": "pIC50", "readout_value": 9.10}
{"structure_smiles": "COc1ncc2cc1NS(=O)(=O)c1cc(c(F)cc1F)C(=O)NCc1cncc(c1)-c1ccnc3ccc-2cc13", "property_name": "pIC50", "readout_value": 9.10}
{"structure_smiles": "COc1ncc2cc1NS(=O)(=O)c1cccc(c1)C(=O)NCc1cncc(c1)-c1ncnc3ccc-2cc13", "property_name": "pIC50", "readout_value": 8.89}
{"structure_smiles": "COc1ncc2cc1NS(=O)(=O)c1cccc(c1)C(=O)NCc1cc(ccn1)-c1ccnc3ccc-2cc13", "property_name": "pIC50", "readout_value": 8.21}

Data point: COc1ncc2cc1NS(=O)(=O)c1cccc(c1)C(=O)NCc1cccc(c1)-c1cnn3ccc-2nc13 ; pIC50 = 6.35

Per the record, COc1ncc2cc1NS(=O)(=O)c1cccc(c1)C(=O)NCc1cccc(c1)-c1ncnc3ccc-2cc13 has pIC50 of 8.60
